Value source: ChEMBL document CHEMBL1157539

System: Plasmodium falciparum
Assay: GSK_TCMDC: Inhibition of Plasmodium falciparum Dd2 in whole red blood cells, using parasite LDH activity as an index of growth. Test compounds present at 2uM
Type: functional
measurement_label: Inhibition (%)
Please respond with the number in % and leave the unit unwritten.

>>> result_value("Cn1cc(-c2ccnc3[nH]c(-c4cccc(CNC5CCC(O)CC5)c4)cc23)cn1.O=C(O)C(F)(F)F (stereo unspecified)")
82

Which Inhibition is reported for this compound? Cl.OC(c1cccc(OCc2ccccc2)c1)C1CN(CCc2ccccc2)CCC1(O)c1ccccc1 (stereo unspecified)
98

Would you kindly repeat that for CC(=NO)C1=C(O)C(c2ccccc2)N(c2ccccc2)C1=O (stereo unspecified) ?
23

====

Test system: HepG2
Test: GSK_TCMDC: Percent inhibition of human HepG2 cell line. Test compounds present at 10uM.
Format: functional
measurement_label: Inhibition
Note to self: number, then unit, no commentary.

Worked cases, answers included:
>>> result_value("CN1CCC(c2c[nH]c3ccc(NC(=O)Nc4ccc(-c5ccncc5)cc4Cl)cc23)CC1")
"31%"
>>> result_value("O=C(Nc1ccccc1)N(Cc1cccc(-c2cccc(CNCc3ccc4c(c3)OCO4)c2)c1)C1CCN(Cc2ccccc2)CC1.O=C(O)C(F)(F)F")
"96%"
>>> result_value("Cc1cccc2nc(-c3cccc(-c4cccc(C(=O)NCCN5CCCC5)c4)c3)[nH]c12")
"21%"

Which Inhibition is reported for this compound? O=C(C1CC1c1ccccc1)N(Cc1ccc(-c2ccc(CNCCc3ccccc3)cc2)cc1)C1CCNCC1.O=C(O)C(F)(F)F (configuration not stated)
36%

Would you kindly repeat that for "Cc1cc(N[C@@H](Cc2ccccc2)C(=O)NCCc2ccccc2)nc(NCc2ccccc2C)n1.O=C(O)C(F)(F)F" ?
37%

Would you kindly repeat that for NC(CC1CC(=O)N1CC(=O)O)C(=O)O (configuration not stated) ?
56%

Would you kindly repeat that for Cc1cccc2nc(-c3ccc(-c4ccc(CN5CCCC5CN)cc4)cc3)[nH]c12.O=C(O)C(F)(F)F (configuration not stated) ?
28%

====

Test system: HepG2
Test: GSK_TCMDC: Percent inhibition of human HepG2 cell line. Test compounds present at 10uM.
Assay type: functional
measurement_label: Inhibition (%)
Please respond with the number in % and leave the unit unwritten.

Worked cases, answers included:
>>> result_value("C[C@H](Cc1ccc(OCCCCCCOc2ccc(C[C@@H](C)NC[C@H](O)c3cccc(Cl)c3)cc2)cc1)NC[C@H](O)c1cccc(Cl)c1.Cl")
99
>>> result_value("c1ccc(COc2ccccc2COc2ccccc2-c2ccc3cccnc3n2)cc1")
0
>>> result_value("Cc1ccc(NC(=O)c2ccc(Cl)c(Cl)c2)cc1-c1ccc(C(=O)Nc2ccncc2)cc1")
39

Which Inhibition is reported for this compound? O=[N+]([O-])c1cccc(S(=O)(=O)N2CCN(CC(O)COc3ccc(-c4ccccc4)cc3)CC2)c1 (stereo not drawn)
11

Would you kindly repeat that for O=C(NC(Nc1ccc([N+](=O)[O-])cc1)C(Cl)(Cl)Cl)c1ccc(Cl)cc1 (stereo not drawn) ?
21

Would you kindly repeat that for "CCCCCCc1cc(Oc2c(I)cc(C[C@H](N)C(=O)O)cc2I)ccc1O" ?
0

Would you kindly repeat that for O=C(N[C@@H](Cc1ccccc1)C(=O)NC1CCCc2ccccc21)c1ccc(O)c(-c2cccc(C(F)(F)F)c2)c1 (stereo partly drawn) ?
0

Would you kindly repeat that for "COc1ccc(N2CCN(CCCCNC(=O)c3ccc(NC(=O)c4cc(C(F)(F)F)cc(C(F)(F)F)c4)cc3)CC2)c(OC)c1" ?
30

====

Attribute: Inhibition
Tested on: HepG2
Test: GSK_TCMDC: Percent inhibition of human HepG2 cell line. Test compounds present at 10uM.
Format: functional
Please respond with the number in % and leave the unit unwritten.

>>> result_value("Clc1nc(Cl)c2c(ccn2Cc2ccccc2)n1")
0
>>> result_value("CN(C)CCN(C)Cc1ccc(-c2ccc3c(Nc4ccc(Oc5ccccc5)cc4)ccnc3c2)o1")
5
>>> result_value("C=CCOC(=O)N1CCC(CNCc2cccc(-c3cccc(-c4nc5cccc(C)c5[nH]4)c3)c2)C1.O=C(O)C(F)(F)F (stereo not drawn)")
22
>>> result_value("CN(C)CCNC(=O)c1cccc(-c2cnc3ccc(NCc4ccc(Cl)c(Cl)c4)nn23)c1")
31
>>> result_value("Cl.O=C(Nc1ccc2c(c1)CCNCC2)c1ccc(-c2ccc(Cl)cc2)cc1")
71
>>> result_value("CSc1nc2cc3c(cc2n1C(=O)c1ccc(C)cc1)OCCO3")
0
>>> result_value("COc1cc(Nc2ccnc3ccc(C(C)(C)C)cc23)cc(OC)c1OC")
12
>>> result_value("CC(=O)Nc1ccc(OCCN(Cc2ccccc2C(F)(F)F)c2ccc(C#N)c(C(F)(F)F)c2)cc1")
8
>>> result_value("O=C(NCc1ccc(Cl)c(Cl)c1)c1ccc(C2CCCN(Cc3ccc4[nH]cnc4c3)C2)cc1 (stereo not drawn)")
9
>>> result_value("COc1ccc(NC(=O)C2CCN(CCCCCNC(=O)/C=C/c3ccc(Cl)c(Cl)c3)CC2)cc1")
26

Which Inhibition is reported for this molecule? "Cc1cc(=O)[nH]c(-n2nc(C)cc2NC(=O)CC(c2ccccc2)c2ccccc2)n1"
42

Would you kindly repeat that for "CC(C)COc1ccc(Cl)cc1Cc1ccc(-c2nc3cc(F)c(F)cc3[nH]2)o1" ?
27

====

Attribute: Inhibition
Tested on: Plasmodium falciparum
Assay: GSK_TCMDC: Inhibition of Plasmodium falciparum 3D7 in whole red blood cells, using parasite LDH activity as an index of growth. Test compounds present at 2uM
Assay type: functional
Note to self: number, then unit, no commentary.

Worked cases, answers included:
>>> result_value("O=C(/C=C/c1ccc(Cl)cc1)NCCCCCN1CCN(C(=O)Nc2ccc(Cl)c(C(F)(F)F)c2)CC1")
"94%"
>>> result_value("Nc1ncc(-c2ccc(F)c(Cl)c2)c(N)n1")
"83%"

Which Inhibition is reported for this compound? OC(COCc1ccc(-c2ccccc2)cc1)CN1CCCCC1 (stereo unspecified)
99%

Would you kindly repeat that for "Cc1ccc(NC(=O)c2ccc(-c3cc4cc(Cl)c(Cl)cc4[nH]3)cc2)cc1OCCN1CCCC1.O=C(O)C(F)(F)F" ?
100%

Would you kindly repeat that for "Cc1cccc2nc(-c3cccc(-c4ccc(NC(=O)Nc5ccsc5)cc4)c3)[nH]c12" ?
100%

Would you kindly repeat that for "COc1ccc(CN2CCN(C(=O)c3cccs3)CC2)c(O)c1" ?
97%

Would you kindly repeat that for "COc1ccc2nccc([C@H](O)CN3CCC(NCc4nc5cccc(F)c5[nH]4)CC3)c2c1.O=C(O)C(=O)O" ?
98%

Would you kindly repeat that for O=C(Nc1ccc(I)cc1)N1CCc2sccc2C1CN1CCCCC1 (stereo unspecified) ?
90%

Would you kindly repeat that for "Cc1ccc(Cn2c(N3CCC(C(=O)NCc4ccccn4)CC3)nc3ccccc32)cc1" ?
100%

Would you kindly repeat that for "Br.CC1(C)NC(N)=NC(=N)N1OCCOc1cccc(C(F)(F)F)c1" ?
93%

Would you kindly repeat that for Cc1ccc(O)cc1Nc1ccnc2cc(-c3ccccn3)ccc12.Cl [GW440139A] ?
97%

====

Tested on: Plasmodium falciparum
Test: GSK_TCMDC: Inhibition of Plasmodium falciparum Dd2 in whole red blood cells, using parasite LDH activity as an index of growth. Test compounds present at 2uM
Type: functional
measurement_label: Inhibition (%)
Please respond with the number in % and leave the unit unwritten.

>>> result_value("N#Cc1ccc(-c2ccc(C(=O)NC3CCN(CCN4CCC(c5cn(CCO)c6ccccc56)CC4)CC3)cc2)cc1")
79
>>> result_value("O=C(Nc1cccc(-c2cccc(-c3nc4cc(C(F)(F)F)ccc4[nH]3)c2)c1)c1ccncc1")
61

The record that follows has no Inhibition shown yet.
Which Inhibition is reported for this compound? "CN(C)CCOc1cc(NC(=O)Nc2ccc(-c3ccncc3)c(C(F)(F)F)c2)ccc1Cl"
79

====

Test system: Plasmodium falciparum
Assay: GSK_TCMDC: Inhibition of Plasmodium falciparum 3D7 in whole red blood cells, using parasite LDH activity as an index of growth. Test compounds present at 2uM
Assay type: functional
Attribute: Inhibition
Please respond with the number in % and leave the unit unwritten.

Worked cases, answers included:
>>> result_value("Cc1ccc2[nH]ncc2c1N(CC1CCCCC1)c1ccnc(Nc2ccc(OCC(O)CN3CC=CCC3)cc2)n1.O=CO (stereo not given)")
100
>>> result_value("COc1c(Br)cc(Br)cc1C(C)=O")
95
>>> result_value("CCN(CC)CCc1ccc2c(=O)cc(CCc3cccc(F)c3F)n(CC(=O)N(C)Cc3ccc(-c4ccc(C(F)(F)F)cc4)cc3)c2c1.O=C(O)C(O)C(O)C(=O)O")
97
>>> result_value("CN(C)CCOc1cc(NC(=O)/C=C/c2cccc3ccccc23)ccc1I")
98
>>> result_value("O=C(O)C(F)(F)F.O=c1ccc2ccc(F)c3c2n1CC3CN1CCC(NCc2ccc(-c3cccc(Cl)c3)nc2)CC1 (stereo not given)")
96

Which Inhibition is reported for this compound? "Cc1cccc2nc(-c3cccc(-c4cccc(NC(=O)Nc5cccc(C#N)c5)c4)c3)[nH]c12"
100

Would you kindly repeat that for "CN1CCN(CC(=O)Nc2cccc(-c3cccc(-c4nc5cc(C(F)(F)F)ccc5[nH]4)c3)c2)CC1" ?
100

Would you kindly repeat that for "Cc1cccc2nc(-c3ccc(-c4cccc(NC(=O)COc5ccccc5C(N)=O)c4)s3)[nH]c12" ?
99

Would you kindly repeat that for "N#CN1CC[C@@H](OC(=O)N[C@@H]2C[C@H]2c2ccccc2)C1" ?
84

Would you kindly repeat that for "Cc1cc(NCCC(=O)Nc2ccccc2)nc(NCCc2cccs2)n1.O=C(O)C(F)(F)F" ?
99
